molecular target: Human Cbl-b (residues 40-426) (Homo sapiens (Human), UniProt Q13191)
Sequence (Q13191 40-426): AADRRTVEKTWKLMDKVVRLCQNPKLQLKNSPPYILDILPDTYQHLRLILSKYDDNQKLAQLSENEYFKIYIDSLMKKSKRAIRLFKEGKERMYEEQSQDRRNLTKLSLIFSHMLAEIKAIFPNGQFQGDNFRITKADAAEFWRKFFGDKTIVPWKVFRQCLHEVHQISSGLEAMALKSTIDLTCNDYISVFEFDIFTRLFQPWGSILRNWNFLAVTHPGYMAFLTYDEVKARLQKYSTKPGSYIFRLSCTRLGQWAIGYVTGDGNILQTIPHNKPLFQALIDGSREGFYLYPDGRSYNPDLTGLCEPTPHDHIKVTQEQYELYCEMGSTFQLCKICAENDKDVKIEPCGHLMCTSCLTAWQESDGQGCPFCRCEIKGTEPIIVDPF
ENDPOINT: pKd
In textbook form, pKd equals minus log to base ten of the concentration in mol/L.

Consider the compound shown here: Cn1cnnc1[C@H](c1cccc(N2Cc3c(cc(CNC4(C)CCC4)cc3C(F)(F)F)C2=O)c1)C1CC(OCC(F)F)C1 (single isomer, unassigned) [Compound 263] What is its recorded pKd?
8.72

Try the compound CO[C@H]1C[C@](c2cccc(N3Cc4c(cc(CNC5CC(C)(F)C5)cc4C(F)(F)F)C3=O)c2)(c2nncn2C)C1 (stereo partly drawn) [Compound 497]
8.72

Try the compound CO[C@H]1C[C@](c2cccc(N3Cc4c(cc(CNC5CC(C(F)F)C5)cc4C(F)(F)F)C3=O)c2)(c2nncn2C)C1 (stereo partly drawn) [Compound 494]
8.74

Try the compound Cn1cnnc1[C@H](c1cccc(N2Cc3c(cc(CNC4(C)CCC4)cc3C(F)(F)F)C2=O)c1)C1CC(=O)C1 (single isomer, unassigned) [Compound 115]
8.74

Try the compound CC(C)[C@H]1CN(C)CCN1Cc1cc2c(c(C(F)(F)F)c1)CN(c1cc([C@]3(c4nncn4C)C[C@@H](C)C3)cc(OC3CCCC3)n1)C2=O [Compound 72]
9.40

Try the compound CO[C@H]1C[C@](c2cccc(N3Cc4c(cc([C@H](N)C(C)(C)C)cc4C(F)(F)F)C3=O)c2)(c2nncn2C)C1 (single isomer, unassigned) [Compound 360]
7.08

Try the compound Cn1cnnc1[C@]1(c2cccc(N3Cc4c(cc(CNC5(C)CCC5)cc4C(F)(F)F)C3=O)c2)C[C@H](CC#N)C1 [Compound 88]
7.68

Try the compound Cn1cnnc1C1(c2cccc(N3Cc4c(cc(CNC5(C)CCC5)cc4C(F)(F)F)C3=O)c2)CN(CC(F)(F)F)C1 [Compound 110]
5.96

Try the compound Cn1cnnc1[C@H](c1cccc(N2Cc3c(cc(CNC4(C)CCC4)cc3C(F)(F)F)C2=O)c1)C1CC(OCC(F)F)C1 (single isomer, unassigned) [Compound 262]
7.89

Try the compound CO[C@H]1C[C@](c2cccc(N3Cc4c(cc(CN[C@@H]5C[C@H]5C)cc4C(F)(F)F)C3=O)c2)(c2nncn2C)C1 [Compound 502]
8.30

Try the compound CO[C@H]1C[C@@](c2cc(N[C@@H](C)CC#N)cc(N3Cc4c(cc(CNC5(C)CCC5)cc4C(F)(F)F)C3=O)c2)(c2nncn2C)C1 (single isomer, unassigned) [Compound 233]
7.68

Try the compound Cn1cnnc1[C@@H](c1cccc(N2Cc3c(cc(CNC4(C)CCC4)cc3C(F)(F)F)C2=O)c1)[C@H]1C[C@H](C#N)C1 (single isomer, unassigned) [Compound 139]
6.66

###

target: Cbl-b (Homo sapiens (Human), UniProt Q13191); assay: Cbl-b LCK Ub TR-FRET assay (Cbl-b Lck HTRF); format: biochemical; conditions: Cbl-b LCK Ub TR-FRET
ENDPOINT: pIC50
In textbook form, pIC50 equals minus log to base ten of the concentration in mol/L.

Consider the molecule shown here: Cn1cnnc1C(F)(c1cccc(N2Cc3c(cc(CNC4(C)CCC4)cc3C(F)(F)F)C2=O)c1)C1COC1 (single isomer, unassigned) [Compound 150] What is its recorded pIC50?
8.04

Try the molecule Cc1cc([C@H](c2nncn2C)C2COC2)cc(N2Cc3c(cc(CNC4(C)CCC4)cc3C(F)(F)F)C2=O)c1 (single isomer, unassigned)
4.80

Try the molecule CC[C@@](F)(c1cccc(N2Cc3c(cc(CNC4(C)CCC4)cc3C(F)(F)F)C2=O)c1)c1nncn1C (single isomer, unassigned)
8.34

Try the molecule CO[C@H]1C[C@](c2cc(C3CC3)cc(N3Cc4c(cc(CNC5(C)CCC5)cc4C(F)(F)F)C3=O)c2)(c2nncn2C)C1
7.96

Try the molecule Cn1cnnc1[C@H](c1cccc(N2Cc3c(cc(CNC4(C)CCC4)cc3C(F)(F)F)C2=O)c1)C1COC1 (single isomer, unassigned)
5.41

Try the molecule CO[C@H]1C[C@](O)(C(c2cccc(N3Cc4c(cc(CNC5(C)CCC5)cc4C(F)(F)F)C3=O)c2)c2nncn2C)C1 (single isomer, unassigned) [Compound 368]
5.40

Try the molecule CCNc1cc(N2Cc3c(cc(CNC4(C)CCC4)cc3C(F)(F)F)C2=O)cc([C@]2(c3nncn3C)C[C@@H](C)C2)c1
8.00

Try the molecule Cn1cnnc1[C@@H](c1cccc(N2Cc3c(cc(CNC4(C)CCC4)cc3C(F)(F)F)C2=O)c1)C1(O)COC1 (single isomer, unassigned)
5.40

Try the molecule C=C[C@H](C)Nc1cc(N2Cc3c(cc(CNC4(C)CCC4)cc3C(F)(F)F)C2=O)cc([C@]2(c3nncn3C)C[C@H](OC)C2)c1 (single isomer, unassigned)
7.89

Try the molecule CC(=O)C1CC([C@@H](c2cccc(N3Cc4c(cc(CNC5(C)CCC5)cc4C(F)(F)F)C3=O)c2)c2nncn2C)C1 (single isomer, unassigned) [Compound 383]
7.72

All figures here come from patent US12187709B2.
